Data credit: ChEMBL document CHEMBL4118144

species: Homo sapiens; test: Selectivity ratio of IC50 for recombinant C-terminal His10-tagged human uPA (M1 to L431 residues) to IC50 for recombinant C-terminal His10-tagged human Hepsin (R45 to […] residues) D161E/ R162K double mutant by automated fluorescence assay
Parameter measured: Ratio IC50

Some molecules with known Ratio IC50 results, for comparison:
{"Molecule": "Cc1ccc(C(=O)N[C@@H](C(=O)Nc2ccc(C(=N)N)cc2)C2CCCCC2)cc1", "Parameter measured": "Ratio IC50", "Readout value": 5}
{"Molecule": "CCCCC(NS(=O)(=O)c1ccc(C)cc1)C(=O)Nc1ccc(Br)cc1 (stereo not drawn)", "Parameter measured": "Ratio IC50", "Readout value": 1}
{"Molecule": "N=C(N)c1ccc(NC(=O)[C@H](NS(=O)(=O)c2ccccc2)C2CCCCC2)cc1", "Parameter measured": "Ratio IC50", "Readout value": 20}
{"Molecule": "N=C(N)c1ccc(NC(=O)[C@H](NS(=O)(=O)c2ccc(C(F)(F)F)cc2)C2CCCCC2)cc1", "Parameter measured": "Ratio IC50", "Readout value": 7}

P: Cc1ccc(NC(=O)N[C@@H](C(=O)Nc2ccc(C(=N)N)cc2)C2CCCCC2)cc1
Q: CCCCC(NS(=O)(=O)c1ccc(C)cc1)C(=O)Nc1cccc(C(=N)N)c1 (stereo not drawn)
Prompt: Between P and Q , which one has the lower reported Ratio IC50 value? Response format: the label of the selected entry.
Response: Q
(Q: 0.26, P: 22)

P: Cc1ccc(S(=O)(=O)NC(CC2CCCC2)C(=O)Nc2ccc(C(=N)N)cc2)cc1 (stereo not drawn)
Q: Cc1ccc(S(=O)(=O)NC(C(=O)Nc2ccc(C(=N)N)cc2)C2CCCC2)cc1 (stereo not drawn)
Prompt: Given the listed records, identify the one among P and Q with higher Ratio IC50. Response format: the label of the selected entry.
Response: Q

###

Recorded pIC50 by entry
molecular target: Serine protease hepsin (Homo sapiens, UniProt P05981, D161E/R162K); assay: Inhibition of recombinant C-terminal His10-tagged human Hepsin (R45 to […] residues) D161E/ R162K double mutant expressed in mouse NS0 cells using Boc-QRR-AMC as substrate after 15 mins by automated fluorescence assay
pIC50: −log10 of the molar value.

Some compounds with known pIC50 results, for comparison:
{"Compound": "Cc1ccc(S(=O)(=O)N2CCCC2C(=O)Nc2ccc(C(=N)N)cc2)cc1 (stereo not drawn)", "pIC50": "5.52 to 5.82"}
{"Compound": "Cc1ccc(S(=O)(=O)NC(CC(C)C)C(=O)Nc2ccc(C(=N)N)cc2)cc1 (stereo not drawn)", "pIC50": "6.05 to 6.22"}

Prompt: What value of pIC50 has been recorded for this entry: CCCCC(NS(=O)(=O)c1ccc(C)cc1)C(=O)Nc1ccc(C(=N)N)cc1 (stereo not drawn)
Response: 6.05 to 6.30

###

molecular target: Urokinase-type plasminogen activator (Homo sapiens, UniProt P00749); assay: Inhibition of recombinant C-terminal His10-tagged human uPA (M1 to L431 residues) expressed in mouse NS0 cells using Z-GGR-AMC as substrate after 15 mins by automated fluorescence assay
Recorded IC50 by entry

{"Compound": "Cc1ccc(S(=O)(=O)NC(C(=O)Nc2ccc(C(=N)N)cc2)C2CCOCC2)cc1 (stereo not given)", "Readout value": "> 19 µM"}
{"Compound": "N=C(N)c1ccc(NC(=O)[C@H](NS(=O)(=O)c2ccc(F)cc2)C2CCCCC2)cc1", "Readout value": "> 14 µM"}
{"Compound": "Cc1ccc(S(=O)(=O)NC(CC(C)C)C(=O)Nc2ccc(C(=N)N)cc2)cc1 (stereo not given)", "Readout value": "11 to 20 µM"}
{"Compound": "COC(=O)C(Cc1cccc(C(=N)N)c1)NC(=O)CNS(=O)(=O)c1ccc(C)cc1 (stereo not given)", "Readout value": "> 10 µM"}

Would you kindly look at the next entry?
Prompt: What value of IC50 has been recorded for this entry: CCCCC(NS(=O)(=O)c1ccc(C)cc1)C(=O)Nc1ccc(C(=N)N)cc1 (stereo not given)
Response: 3 to 5 µM
